Experiment: NCI Yeast Anticancer Drug Screen. Data for the mec2-1 strain (AID 157)
Conditions: S. cerevisiae mec2-1 strain, at 50.0 µM (retest, dose inferred, filed as 5.0)
Compounds without any hit were thinned out: in the full panel of roughly 79,000, 15% have a hit. Activity calls are given as the source filed them. Cut-off read from the data, not from the text of the source: active = growth inhibition above about 70%; inactive = the rest.
Labels: 1 = active, 0 = inactive

molecule: O=C1C(=O)c2cc(Cl)ccc2-c2ccc(Cl)cc21
cat: 1
--
molecule: Cc1ccc(N=Nc2c(-c3ccccc3)nn(C(=S)S)c2-c2ccccc2)cc1
cat: 0
--
molecule: C=CC(=C)OC
cat: 0
--
molecule: O=C1C=C(c2ccccc2)OC(c2ccccc2)C1 (stereo unspecified)
cat: 0
--
molecule: c1ccc2c(c1)oc1cc3ccncc3cc12
cat: 1
--
molecule: O=C1C=CC(Nc2cccc([N+](=O)[O-])c2)C1Nc1cccc([N+](=O)[O-])c1 (stereo unspecified)
cat: 0
--
molecule: COC(=O)C(C#N)C(c1ccccc1)c1c[nH]c2ccccc12 (stereo unspecified)
cat: 0
--
molecule: NCC(O)CSc1ccc(Cl)c(Cl)c1 (stereo unspecified)
cat: 0
--
molecule: O=C1c2ccccc2-c2nc3ncccc3cc21
cat: 1
--
molecule: CCCc1cc2c(cc1COc1ccccc1C(=O)O)OCO2
cat: 0
--
molecule: CCCCCN(CCCCC)CCCNc1ccc(C)c2sc3ccccc3c(=O)c12
cat: 1
--
molecule: COc1ccc(C(O)(c2ccccc2)c2ccccc2)cc1
cat: 1
--
molecule: CC(/C=C/c1cccc(C)c1)=N\NC(N)=S
cat: 0
--
molecule: c1ccc2c(c1)CCCc1cc3ccccc3nc1-2
cat: 1
--
molecule: CCCCCCCCCCCCCCCCCC1=NCCN1
cat: 1
--
molecule: N#CC(C#N)C(c1ccccc1)c1ccccc1
cat: 0
--
molecule: CCCCCCCCCCCCCCCC[N+](C)(C)CC(=O)O
cat: 1
--
molecule: CCOC(=O)/C(=C\n1c(=O)sc2ccccc21)C(=O)c1ccccc1
cat: 0
--
molecule: Cn1c(Sc2ccc(-c3cccnc3)n2C)ccc1-c1cccnc1
cat: 1
--
molecule: Cc1cc(Br)c(P(=O)(O)O)cc1[N+](=O)[O-]
cat: 0
--
molecule: CC(C)CCCCCCCCCCCCC(=O)NCC(=O)NC1C(O)C(O)C(Nc2ncnc3nc[nH]c23)OC1C(O)CO (stereo unspecified)
cat: 0
--
molecule: CC12CCC(O)CC1=CCC1C2CCC2(C)C(NC(=O)C(Cc3ccc(O)cc3)NC(=O)OCc3ccccc3)CCC12 (stereo unspecified)
cat: 1
--
molecule: Cc1cc(CN(Cc2ccccc2)Cc2nc3ccccc3[nH]2)c(O)c(CN(Cc2nc3ccccc3[nH]2)Cc2nc3ccccc3[nH]2)c1
cat: 0
--
molecule: O=CC(=O)CC(O)CO (stereo unspecified)
cat: 0
--
molecule: CCCCCCCCCC[N+](C)(C)CCC[N+](C)(C)CCCCCCCCCC
cat: 1
--
molecule: O=C1C(SCCO)=C(SCCO)C(=O)c2ccccc21
cat: 0
--
molecule: O=[N+]([O-])c1ccc2c(c1)/C(=N/O)c1ccccc1-2
cat: 0
--
molecule: COc1ccc(Nc2nc3ccccc3s2)cc1
cat: 0
--
molecule: CCOC(=O)Cc1nc2ccccc2s1
cat: 1
--
molecule: CCN1C(/C=C/c2ccc(O)c3ncccc23)CCC2CC(C)CCC21 (stereo unspecified)
cat: 1
--
molecule: Oc1ccc(C(O)(c2ccccc2)c2ccccc2)c2ccccc12
cat: 1
--
molecule: Cc1ccc(OC/C=C/c2cccc(C#N)c2)cc1
cat: 0
--
molecule: C#CC(CC)(CC)NC(=O)NC(C)(C)C
cat: 0
--
molecule: C=C(CSCCCCCCCCCCCC)C(=O)O
cat: 1
--
molecule: O=C1c2ccccc2C(=O)c2c1cccc2[N+](=O)[O-]
cat: 1
--
molecule: CCn1c2ccc(N)cc2c2c(N)c(-n3cccc3)ccc21
cat: 0
--
molecule: Cc1ccc(NC(=O)CCCC(=O)C(C#N)c2ccccc2C)cc1C (stereo unspecified)
cat: 0
--
molecule: COc1cc2c(cc1OC)[C@H]1C(=O)c3cc4c(cc3[C@H]1N(C)C2=O)OCO4
cat: 0
--
molecule: NC(=O)C1CCCN1C(=O)C1CCCN(Cc2ccc(CN3CCCC(C(=O)N4CCCC4C(N)=O)C3)cc2)C1 (stereo unspecified)
cat: 0
--
molecule: NCCOB1c2ccccc2Cc2ccccc21
cat: 1
--
molecule: BrCc1ccc([Si](c2ccccc2)(c2ccccc2)c2ccc(CBr)cc2)cc1
cat: 0

###

Experiment: NCI Yeast Anticancer Drug Screen. Data for the cln2 rad14 strain (AID 165);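 note: 0% = growth equal to vehicle treated cultures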
Settings: S. cerevisiae cln2 rad14 strain, at 5.0 µM (retest, dose inferred, filed as 0.5)
The panel holds about 79,000 compounds, 15% with a hit somewhere; the sample as a whole holds those more often. Active and inactive are the calls of the source. Rule as the data show it: active = growth inhibition above about 70%; inactive = the rest.
Labels: active, inactive

molecule: Cc1ccc(/C=N/Nc2ccc([N+](=O)[O-])cc2[N+](=O)[O-])cc1
cat: inactive
--
molecule: CNc1ccc(F)cc1SSc1cc(F)ccc1NC
cat: inactive
--
molecule: COc1ccc(C(=O)CC(=O)c2ccccc2)cc1
cat: inactive
--
molecule: CCOC(=O)c1c(NC(=O)CBr)sc(C)c1C
cat: inactive
--
molecule: O=C(Oc1c(Cl)cc(Cl)c(Cl)c1Cl)Oc1c(Cl)cc(Cl)c(Cl)c1Cl
cat: inactive
--
molecule: O=C(O)Cc1cccc(O)c1
cat: inactive
--
molecule: Cc1ccc(N2CC3CC4(C)C=CC3(C2)O4)cc1 (stereo not given)
cat: inactive
--
molecule: O=C(CCl)N(Cc1ccccc1)Cc1ccccc1
cat: inactive
--
molecule: [O-]c1c2cc(-[n+]3c(-c4ccccc4)cc(-c4ccccc4)cc3-c3ccccc3)cc1CO[C@@H](c1ccccc1)[C@H](c1ccccc1)OCc1cccc(n1)CO[C@@H](c1ccccc1)[C@H](c1ccccc1)OC2
cat: active
--
molecule: N#C/C(=C/c1ccc([N+](=O)[O-])o1)c1ccccc1
cat: inactive
--
molecule: COC(C(=O)O)c1ccccc1 (stereo not given)
cat: inactive
--
molecule: Cn1c(=S)c2[nH]c(SCc3ccncc3)nc2n(C)c1=O
cat: inactive
--
molecule: CSc1cc2c(cc1N)Cc1ccccc1-2
cat: inactive
--
molecule: CS(=O)(=O)OCCN(CCOS(C)(=O)=O)c1ccc(C=Nc2ccc(-c3csc(-c4ccc(Br)cc4)n3)cc2)cc1
cat: inactive
--
molecule: CC(C)N(C(=O)CC1(O)CCCCC1)C(C)C
cat: inactive
--
molecule: COc1cccc2c1OC(c1cccc3ccccc13)C([N+](=O)[O-])=C2 (stereo not given)
cat: inactive
--
molecule: COC(=O)C1(C)CC2C(C)(CCC3(C)C4=CC=C5C(=CC(=O)C(O)=C5C)C4(C)CCC23C)CC1O (stereo not given)
cat: inactive
--
molecule: CCCCCCCCCCCCSC(=NCC)NCC
cat: inactive
--
molecule: Nc1ccc(Oc2ccccc2)cc1
cat: inactive
--
molecule: COc1ccc(C(=O)C2Cc3c(ccc4ccccc34)OC2=O)cc1 (stereo not given)
cat: inactive
--
molecule: Cc1ccc(S(=O)(=O)OC(COC(=O)c2ccc([N+](=O)[O-])cc2)C2OC(C)(C)OC2C(SCc2ccccc2)SCc2ccccc2)cc1 (stereo not given)
cat: inactive
--
molecule: Cc1ccc(S(=O)(=O)NCCCOS(=O)(=O)c2ccc(C)cc2)cc1
cat: inactive
--
molecule: Clc1ccc(SSc2ccc(Cl)cn2)nc1
cat: inactive
--
molecule: CCCCCCCC/C=C\CCCCCCCC(=O)NCCN(C)C
cat: inactive
--
molecule: CC(=O)OC1CCC2(C)C3CCC4(C)C(CCC4(Br)C(=O)CBr)C3CC(Br)C2(Br)C1 (stereo not given)
cat: inactive
--
molecule: CCCCCCc1c(Cl)nc(Cl)nc1Cl
cat: inactive
--
molecule: Cc1cccc(C)c1NC(=O)CCc1nnc(N)n1N
cat: inactive
--
molecule: O=C(O)c1ccccc1-c1c2ccc(=O)c(Br)c-2oc2c(Br)c(O)ccc12
cat: inactive
--
molecule: CCN(CC)CCCCCCNc1cc(C)cc2cccnc12
cat: inactive
--
molecule: Cc1cc2c(cc1C)C(=O)OC2=O
cat: inactive

###

Assay: NCI Yeast Anticancer Drug Screen. Data for the mec2-1 strain (AID 157)
Details: S. cerevisiae mec2-1 strain, at 50.0 µM
The panel holds about 79,000 compounds, 15% with a hit somewhere; the sample as a whole holds those more often. The source made the active and inactive calls. Rule as the data show it: active = growth inhibition above about 70%; inactive = the rest.
Labels: t for active, f for inactive

compound: C/C(=N\NC(=S)N1CCC(C)CC1)c1ncccn1
cat: t

compound: Cc1nn(-c2ccc(S(=O)(=O)[O-])cc2)c([O-])c1N=[N+](C)c1ccc(-c2ccc(N=Nc3ccc4c(S(=O)(=O)[O-])cc(S(=O)(=O)[O-])c(N)c4c3[O-])c([O-])c2)cc1[O-].[Cu+2].[Cu+2].[Na+]
cat: f

compound: CN(C)c1ccc2c(NCCCCCCNc3ccnc4cc(N(C)C)ccc34)ccnc2c1
cat: t

compound: COc1cc(C(=O)[O][Sn]([c]2ccccc2)([c]2ccccc2)[c]2ccccc2)cc(OC)c1OC
cat: t

compound: O=C1C=CC(Nc2cccc([N+](=O)[O-])c2)C1Nc1cccc([N+](=O)[O-])c1 (stereo not drawn)
cat: t

compound: O=[N+]([O-])c1ccc(C=NC2CCCCC2)c([N+](=O)[O-])c1
cat: f

compound: Oc1ccc(C(O)(c2ccccc2)c2ccccc2)c2ccccc12
cat: t

compound: COc1c(O)ccc2c1CN1CCc3cc4c(cc3C1C2)OCO4 (stereo not drawn)
cat: f
